test system: RPMI-8226 leukemia; experiment: NCI tumour cell line growth inhibition, 48 h; in the data active = GI50 below about 0.43 µM; inactive = the rest
Returns: one label drawn from active, inactive

compound=NCCCn1c2c(c3ccc([N+](=O)[O-])cc3c1=O)C(=O)c1cc3c(cc1-2)OCO3 label=active
compound=Cc1cc(N(CCCNc2ccnc3cc(Cl)ccc23)Cc2cccs2)nc(Cl)n1 label=inactive
compound=Cn1cc(-c2csc(-c3cn(CCN4CCOCC4)c4ccc(F)cc34)n2)c2cccnc21 label=inactive
compound=COc1cc2c(cc1OCCCCC(=O)Nc1ccc(-c3nc4ccccc4s3)cc1)N=C[C@@H]1CCCN1C2=O label=inactive
compound="O=S(=O)(NC(=S)Nc1ccccc1)c1ccc(N2N=C3c4ccccc4CC3C2c2ccc(Cl)cc2)cc1 (centres undefined)" label=inactive

Which result was noted for this compound in the test: COc1ccc(-c2nnc3n(C)c(=O)c4ccccc4n23)cc1O
inactive

Any idea what this test logged for Cc1c(N2C(=O)/C(=C\c3ccc(O)cc3)N=C2c2ccccc2)c(=O)n(-c2ccccc2)n1C ?
inactive

For COc1ccc2nc(-c3ccccc3)cc(Nc3ccc(/C(C)=N/O)cc3)c2c1 , which call appears in the assay record?
inactive

I'd appreciate the recorded outcome for c1ccc(Cn2cc3c(c2)-c2oncc2CC3)cc1 from this test.
active

---

tested on: K-562 leukemia; experiment: NCI tumour cell line growth inhibition, 48 h
measure.name: GI50

For orientation, consider the following solved cases.
compound=O=C(Cc1ccc(/C=C/C(=O)c2ncc[nH]2)cc1)Nc1ccc(Br)cc1 observed_result="745 nM"
compound=Cc1sc2nc(-c3ccccn3)c(/C=N/N=C(N)N)n2c1C observed_result="> 51500 nM"

I would be grateful if you could provide GI50 for each of the following entries.
1. CC(=O)OCCC/C(=C\c1ccc2ccccc2c1)[N+](=O)[O-]
2. CC12C=CC(C)(O1)C1C2c2ccccc2S1(=O)=O (stereo unspecified)
3. COc1ccc(C(=O)Nc2ncc(Cc3ccc(F)cc3)s2)cc1
4. COc1ccc(-c2nnc3n(C)c(=O)c4ccccc4n23)cc1O
5. Cc1cc(C)cc(Nc2nccc(-c3c(-c4ccc(F)cc4)ncn3C3CCNCC3)n2)c1
6. CCC[CH2][Sn]1([CH2]CCC)[O]C(=O)C[S]1
7. COC(=O)C1CC2(c3ccc(C)cc3)C(c3ccc(C)cc3)=C(c3ccc(C)cc3)C1(c1ccc(C)cc1)S2=O (stereo unspecified)

["2010 nM", "69700 nM", "37.7 nM", "135 nM", "1030 nM", "405 nM", "> 100000 nM"]

Please report GI50 for every entry that follows.
1. COc1cc(/C=C/C(=O)c2c(C)n([O-])c3cc(C)c(C)cc3[n+]2=O)cc(OC)c1OC
2. Cc1cc(-c2ccccc2)c(C)n1Cc1ccc(Cl)cc1

1. 18700 nM
2. 840 nM

---

Provide the recorded TGI for the entries that follow.
tested on: CCRF-CEM leukemia; assay: NCI tumour cell line growth inhibition, 48 h

molecule=Cc1cccc2c(N)c3cccc(C(=O)NCC[N+](C)(C)Cc4sc(N5CCOCC5)nc4[N+](=O)[O-])c3nc12 observed_result="26.9 µM"
molecule=CN(N)C(=O)NCCCl observed_result="> 100 µM"

Hi, could you look up TGI for each item in my list?
1. O=C(c1ccc(Cl)cc1)N(Cc1cccnc1)C(=S)N(Cc1cccnc1)C(=O)c1ccc(Cl)cc1
2. COc1ccc(N2CCN(c3ccc4c(c3)NCC(=O)N4)CC2)cc1
3. CCCCCCC(CCl)c1sc(-c2csc(CCNC(=O)OC(C)(C)C)n2)nc1C(=O)OC (stereo not given)

1: > 100 µM; 2: > 100 µM; 3: > 100 µM

---

For each record, write down the corresponding TGI.
system: LOX IMVI melanoma; test: NCI tumour cell line growth inhibition, 48 h
One number for each entry, in µM.

smiles_str=Cn1c2ccccc2c2cc(-c3ccccc3)c3c(c21)C(=O)C=CC3=O unit_of_measure=µM observed_result=34.7
smiles_str=CN(C)CCCNC(=O)c1cc2c3ccccc3[nH]c2c2ncccc12 unit_of_measure=µM observed_result=23.8

Provide each entry's TGI from the list below.
1. BrP(NC1CCCCCC1)(c1ccccc1)(c1ccccc1)c1ccccc1
2. COc1cc(Nc2ncc3c(n2)-c2ccc(Cl)cc2C(c2c(F)cccc2OC)=NC3)ccc1C(=O)O
3. Cc1cc[c-]cc1.Fc1c[c-]c(-c2ccccn2)c(F)c1.N#CCC[PH+](CCC#N)c1ccccc1.[Pt+2]

1. 10.4
2. 21.3
3. 5.18

TGI measured on COc1cc(C(=O)/C=C/c2c(-c3ccc(F)cc3)nc3sccn23)cc(OC)c1OC = 5.15

---

system: MDA-MB-231 breast; experiment: NCI tumour cell line growth inhibition, 48 h; in the data active means GI50 below about 0.43 µM; inactive means the rest
Result category, one only: active, inactive

molecule=O=C(Cc1ccc(/C=C/C(=O)c2ncc[nH]2)cc1)Nc1ccc(Br)cc1 label=inactive
molecule=C/C1=C\CC[C@@](C)(O)[C@H]2C[C@H](CC/C(C)=C/CC1)C1(CC1)C(=O)O2 label=inactive
molecule=Nc1c(C(=O)Nc2cccc3ccccc23)sc2nc3c(cc12)CCCC3 label=inactive
molecule=CC(=O)OCCC/C(=C\c1ccc2ccccc2c1)[N+](=O)[O-] label=inactive
molecule="O=C1Nc2ccccc2C12CC(c1ccccc1)=NN2 (configuration not stated)" label=inactive
molecule=O=C(Cc1ccccc1)Nc1nnc(CCSCCc2nnc(NC(=O)Cc3ccccc3)s2)s1 label=inactive

What outcome does the record of this test show for COc1cc2c(cc1OCCCCCCNC(=O)c1cc3ccccc3[nH]1)N=CC1CCCN1C2=O (configuration not stated) ?
inactive

// return assay outcome for CC(C)(C)c1ccc(C(=O)N/N=C/c2ccc(O)cc2O)cc1
inactive

---

tested on: TK-10 renal; assay: NCI tumour cell line growth inhibition, 48 h
measure.name: TGI (µM)
Give bare numbers, in µM.

smiles_str=Cc1cc(C)cc(Nc2nccc(-c3c(-c4ccc(F)cc4)ncn3C3CCNCC3)n2)c1 unit_of_measure=µM observed_result=2.95

Please turn your attention to the following entry.
Looking up COc1cc2c(cc1OCCCCC(=O)Nc1ccc(-c3nc4ccccc4s3)cc1)N=C[C@@H]1CCCN1C2=O , I see its TGI listed as 7.97

---

system: UACC-257 melanoma; experiment: NCI tumour cell line growth inhibition, 48 h
measure.name: TGI (µM)
Numbers only, in µM.

Reference set, count: 2
compound="O=S(=O)(NC(=S)Nc1ccccc1)c1ccc(N2N=C3c4ccccc4CC3C2c2ccc(Cl)cc2)cc1 (stereo not drawn)" unit_of_measure=µM observed_result=70.5
compound="COCC(=O)[C@]1(O)Cc2c(O)c3c(c(O)c2[C@@H](OC2CC(N)C(O)C(C)O2)C1)C(=O)c1c(OC)cccc1C3=O (stereo partly drawn)" unit_of_measure=µM observed_result=1.48

Please state TGI for every compound in the list that follows.
1. CSc1nc(Cl)c(Br)c(Nc2c[nH]c(=O)[nH]c2=O)n1
2. N=C1N=C(N)c2cc3c(cc21)SCCSCCCSCCS3

1. 38.7
2. 44

---

system: DMS 114 small cell lung; assay: NCI tumour cell line growth inhibition, 48 h
measure.name: TGI

Consider the worked cases shown below.
molecule=COc1ccc2oc(-c3ccncc3)cc(=O)c2c1 observed_result="> 100 µM"
molecule="COc1cc(C2[C@H]3C(=O)N(c4ccc(Cc5ccc(N6C(=O)[C@@H]7ON(c8ccccc8)C(c8cc(OC)c(OC)c(OC)c8)[C@@H]7C6=O)cc5)cc4)C(=O)[C@H]3ON2c2ccccc2)cc(OC)c1OC (stereo not given in full)" observed_result="> 100 µM"
molecule=CN(C)c1nc(N(C)C)nc(N(C)CN(C)c2nc(N(C)C)nc(N(C)C)n2)n1 observed_result="> 100 µM"
molecule=CC1=C(C(=O)Nc2ccccc2C)C(c2ccc(N(C)C)cc2)C(C(=O)Nc2ccccc2C)=C(C)N1 observed_result="> 100 µM"
molecule=CCOC(=O)c1c(-c2[nH]c(C(=O)OCc3ccccc3)c(C)c2C(=O)OCC)[nH]c(C(=O)OCc2ccccc2)c1C observed_result="> 100 µM"
molecule=CC(C)C(/C=C/c1ccccc1)=N\NC(=O)N/N=C(/C=C/c1ccccc1)C(C)C observed_result="60.1 µM"

Each of the following entries comes with a recorded value; kindly state TGI for each.
1. CC(=O)c1ccc(NC(=O)/C(=N\NC(N)=O)C(C#N)CC(C)(C)C=O)cc1 (stereo not given)
2. CSC(=S)N(C)NC(=O)c1cccc(C(=O)NN(C)C(=S)SC)n1
3. CCCNC(=O)c1cc2ccccc2cc1C(=O)OC
4. Cc1ccc(NC(=O)c2cccc([N+](=O)[O-])c2O)c(C)c1

1. > 100 µM
2. 17 µM
3. > 100 µM
4. > 100 µM

---

test system: NCI-H460 lung; experiment: NCI tumour cell line growth inhibition, 48 h
For each entry below, report its TGI value.

Use the examples below as a reference point.
compound="CC(O)(c1ccccc1)c1nccc2ccccc12 (centres undefined)" system_name="NCI-H460 lung" observed_result="> 100 µM"
compound=O=C(c1ccc(Cl)cc1)N(C(=S)N1CCN(c2ccccn2)CC1)c1ccccc1 system_name="NCI-H460 lung" observed_result="> 100 µM"
compound="O=S(=O)(NC(=S)Nc1ccccc1)c1ccc(N2N=C3c4ccccc4CC3C2c2ccc(Cl)cc2)cc1 (centres undefined)" system_name="NCI-H460 lung" observed_result="60 µM"

The record that follows has no TGI shown yet.
Entry CC1OC(OC2C(OC3C[C@@]4(C)C(C[C@H](O)[C@H]5[C@H](C6(C)CCC(C(C)(C)O)O6)CCC54C)[C@]4(C)CC[C@@H](O)C(C)(C)C34)OC(CO)C(O)C2O)C(O)C(O)C1O (some centres undefined) (tested in a mixture with another compound) ; assay system NCI-H460 lung; TGI recorded at > 100 µM
